# growth listing for each entry below
system: HCC-2998 colon; assay: NCI-60 one-dose screen, 48 h (100 = growth as untreated, 0 = no growth, -100 = all killed); settings: 10 µM
About 83,000 compounds went through this panel and 20% of them were active in at least one assay; those are over-represented in the sample as a whole. Active and inactive are the calls of the source. Rule for the calls: active = growth percent below 10; inactive = the rest.

Data request: Tell me its growth given C=CCNCCN1C(=O)c2ccc3c4c(ccc(c24)C1=O)C(=O)N(CCNCC=C)C3=O as the entry.
Data returned: -81.2% (active)

Data request: Tell me its growth given CC(C)=CCC/C(C)=C/CC/C(C)=C/CC/C=C(\C)CC/C=C(\C)CCC(=O)Nc1ccn(C2OC(CO)C(O)C2(F)F)c(=O)n1 (centres undefined) as the entry.
Data returned: 82.4% (inactive)

Hello, the source for this data is PubChem BioAssay (NCI), in case you need it.
